# experiment-description: in vitro
# condition-parameters: CC50 (Toxicity), listed under Against HIV-I IIIB; single determinations
readout-label: CC50 at 72 h (µM)
Give a bare numeral; the unit µM is implied.

Looking up `O=C(O)c1cc([N+](=O)[O-])cc([N+](=O)[O-])c1Cl` , I see its CC50 at 72 h listed as 35

###

# Tested on: uninfected cells
readout-label: CC50

Observe how each entry below is paired with its result.
> print(dat)
                                   compound  readout.label    result
1  O=C(O)c1ccc(Cl)c([N+](=O)[O-])c1 [C9, 4-chloro-3-nitrobenzoic acid]           CC50  > 200 µM
2  O=C(O)c1ccc(Cl)c(Cl)c1 [C11, 3,4-dichlorobenzoic acid]           CC50  > 200 µM
3  O=C(O)c1cc(Cl)ccc1Cl [C12, 2,5-dichlorobenzoic acid]           CC50  > 200 µM

Next up:
Short answer for O=C(O)c1ccc([N+](=O)[O-])cc1Cl [C10, 2-chloro-4-nitrobenzoic acid] : CC50 was > 200 µM
